target: Type-1 angiotensin II receptor (Homo sapiens); further: assay procedure not described here
Sequence (P30556 whole entry): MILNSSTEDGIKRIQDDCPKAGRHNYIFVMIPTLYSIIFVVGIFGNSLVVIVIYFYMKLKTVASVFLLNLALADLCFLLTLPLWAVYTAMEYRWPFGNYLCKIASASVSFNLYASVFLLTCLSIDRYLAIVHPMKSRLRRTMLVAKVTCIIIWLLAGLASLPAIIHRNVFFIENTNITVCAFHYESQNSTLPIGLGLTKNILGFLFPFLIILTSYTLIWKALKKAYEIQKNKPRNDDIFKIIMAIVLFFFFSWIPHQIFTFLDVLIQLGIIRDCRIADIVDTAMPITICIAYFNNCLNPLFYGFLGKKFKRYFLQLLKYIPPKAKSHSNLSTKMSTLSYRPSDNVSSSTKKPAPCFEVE
ASSAY_METRIC: AC50

CCCN(CC)C(CC)C(=O)Nc1c(C)cccc1C (stereo not drawn)    > 30 µM
Nc1ccn([C@@H]2O[C@H](CO)[C@@H](O)C2(F)F)c(=O)n1    > 30 µM
CCCCC1(CC)C(=O)NC(=O)NC1=O    > 30 µM
NC(=O)CCC/N=C(\c1ccc(Cl)cc1)c1cc(F)ccc1O [PROGABIDE]    > 10 µM
CC[N+]1(C)CCCC(OC(=O)C(O)(c2ccccc2)c2ccccc2)C1 (stereo not drawn) [PIPENZOLATE]    > 30 µM
CC(C)c1cc2c(cc1S(=O)(=O)O)[C@@]1(C)CCC[C@@](C)(C(=O)O)[C@@H]1CC2    > 30 µM
C#C[C@]1(O)CC[C@H]2[C@@H]3CCC4=CC(=O)CCC4=C3C=C[C@@]21CC    > 30 µM
N=C(N)NCCCCCCC(=O)NC(O)C(=O)NCCCCNCCCN (stereo not drawn)    > 30 µM

Provide value of AC50 for this record tested with Type-1 angiotensin II receptor (Homo sapiens): Clc1ccc(C(Cn2ccnc2)OCc2ccc(Sc3ccccc3)cc2)c(Cl)c1 (stereo not drawn)
23 µM

Provide value of AC50 for this record tested with Type-1 angiotensin II receptor (Homo sapiens): CN1CCN(c2c(F)cc3c(=O)c(C(=O)O)cn4c3c2SCC4)CC1
> 30 µM

Provide value of AC50 for this record tested with Type-1 angiotensin II receptor (Homo sapiens): C#Cc1cccc(Nc2ncnc3cc(OCCOC)c(OCCOC)cc23)c1
> 30 µM

Provide value of AC50 for this record tested with Type-1 angiotensin II receptor (Homo sapiens): CNCC[C@@H](Oc1ccccc1C)c1ccccc1
> 30 µM

Provide value of AC50 for this record tested with Type-1 angiotensin II receptor (Homo sapiens): COc1cc2c(Nc3ccc(Br)cc3F)ncnc2cc1OCC1CCN(C)CC1
> 30 µM

Provide value of AC50 for this record tested with Type-1 angiotensin II receptor (Homo sapiens): CN(C)c1cc(NC(=O)CNC(C)(C)C)c(O)c2c1C[C@H]1C[C@H]3[C@H](N(C)C)C(O)=C(C(N)=O)C(=O)[C@@]3(O)C(O)=C1C2=O
> 30 µM

Provide value of AC50 for this record tested with Type-1 angiotensin II receptor (Homo sapiens): CCN(CC)C(=O)C1CN2CCc3cc(OC)c(OC)cc3C2CC1OC(C)=O (stereo not drawn) [BENZQUINAMIDE]
> 30 µM

Provide value of AC50 for this record tested with Type-1 angiotensin II receptor (Homo sapiens): Cc1cc2nc3c(=O)[nH]c(=O)nc-3n(C[C@H](O)[C@H](O)[C@H](O)COP(=O)(O)O)c2cc1C [RIBOFLAVIN 5'-PHOSPHATE]
> 30 µM

Provide value of AC50 for this record tested with Type-1 angiotensin II receptor (Homo sapiens): Cc1ccc2c(-c3ccccc3)nc(=O)n(C(C)C)c2c1
> 30 µM

Provide value of AC50 for this record tested with Type-1 angiotensin II receptor (Homo sapiens): NS(=O)(=O)c1cc(C2(O)NC(=O)c3ccccc32)ccc1Cl (stereo not drawn)
> 10 µM

###

Target or system Gamma-aminobutyric acid receptor subunit alpha-1 (Rattus norvegicus): recorded AC50 listed per item. Further: assay procedure not described here.

Example cases with answers are listed next.
CC(=O)Oc1ccccc1C(=O)Nc1ncc([N+](=O)[O-])s1 [NITAZOXANIDE]    > 30 µM
CC1(C)C(C=C(Cl)Cl)C1C(=O)OCc1cccc(Oc2ccccc2)c1 (stereo not drawn) [PERMETHRIN]    > 10 µM
CCCN(CC)C(CC)C(=O)Nc1c(C)cccc1C (stereo not drawn) [ETIDOCAINE]    > 30 µM
CNC(=O)Oc1ccc2c(c1)[C@]1(C)CCN(C)[C@@H]1N2C [PHYSOSTIGMINE]    > 30 µM
O=C1CN=C(c2ccccc2)c2cc(Cl)ccc2N1 [NORDAZEPAM]    > 10 µM
NC(=O)c1ncn([C@@H]2O[C@H](CO)[C@@H](O)[C@H]2O)n1 [RIBAVIRIN]    > 10 µM
CCOC(=O)Nc1ccc2c(c1)N(C(=O)CCN1CCOCC1)c1ccccc1S2 [MORICIZINE]    > 30 µM

// query AC50 value for entry CN1C[C@H](C(=O)N[C@]2(C)O[C@@]3(O)[C@@H]4CCCN4C(=O)[C@H](Cc4ccccc4)N3C2=O)C[C@@H]2c3cccc4[nH]cc(c34)C[C@H]21 [DIHYDROERGOTAMINE]
> 10 µM

###

Reported AC50 values are given for each entry in this list.
Target: UniProt P21397
Sequence (P21397 whole entry): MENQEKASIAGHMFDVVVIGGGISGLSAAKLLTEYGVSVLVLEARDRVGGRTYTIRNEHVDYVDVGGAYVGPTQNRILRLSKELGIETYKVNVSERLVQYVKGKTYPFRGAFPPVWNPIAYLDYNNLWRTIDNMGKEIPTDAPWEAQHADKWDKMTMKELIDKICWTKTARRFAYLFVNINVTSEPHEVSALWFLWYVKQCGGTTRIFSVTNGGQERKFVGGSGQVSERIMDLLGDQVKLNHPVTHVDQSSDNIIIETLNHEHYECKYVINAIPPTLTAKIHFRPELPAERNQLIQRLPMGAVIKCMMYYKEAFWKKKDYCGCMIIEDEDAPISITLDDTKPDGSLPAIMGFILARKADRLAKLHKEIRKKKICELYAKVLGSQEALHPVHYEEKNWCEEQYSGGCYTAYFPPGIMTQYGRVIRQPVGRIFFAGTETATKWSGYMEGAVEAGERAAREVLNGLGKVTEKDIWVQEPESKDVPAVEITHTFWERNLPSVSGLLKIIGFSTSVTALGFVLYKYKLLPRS
Assay type: functional

Example cases with answers are listed next.
COc1ccc2c(c1)[C@]13CCCC[C@@H]1[C@H](C2)N(C)CC3    > 10 µM
CCSc1ccc2c(c1)N(CCCN1CCN(C)CC1)c1ccccc1S2    > 30 µM
CNCC[C@H](Oc1cccc2ccccc12)c1cccs1    > 10 µM
O=C1CN=C(c2ccccc2)c2cc(Cl)ccc2N1    > 10 µM

Provide value of AC50 for this record tested with UniProt P21397: CN(c1nccc(=O)[nH]1)C1CCN(c2nc3ccccc3n2Cc2ccc(F)cc2)CC1
> 30 µM

###

molecular target: Voltage-gated inwardly rectifying potassium channel KCNH2 (Homo sapiens, UniProt Q12809); type: functional; settings: read-out: AC50; further: assay procedure not described here
Sequence (Q12809 whole entry): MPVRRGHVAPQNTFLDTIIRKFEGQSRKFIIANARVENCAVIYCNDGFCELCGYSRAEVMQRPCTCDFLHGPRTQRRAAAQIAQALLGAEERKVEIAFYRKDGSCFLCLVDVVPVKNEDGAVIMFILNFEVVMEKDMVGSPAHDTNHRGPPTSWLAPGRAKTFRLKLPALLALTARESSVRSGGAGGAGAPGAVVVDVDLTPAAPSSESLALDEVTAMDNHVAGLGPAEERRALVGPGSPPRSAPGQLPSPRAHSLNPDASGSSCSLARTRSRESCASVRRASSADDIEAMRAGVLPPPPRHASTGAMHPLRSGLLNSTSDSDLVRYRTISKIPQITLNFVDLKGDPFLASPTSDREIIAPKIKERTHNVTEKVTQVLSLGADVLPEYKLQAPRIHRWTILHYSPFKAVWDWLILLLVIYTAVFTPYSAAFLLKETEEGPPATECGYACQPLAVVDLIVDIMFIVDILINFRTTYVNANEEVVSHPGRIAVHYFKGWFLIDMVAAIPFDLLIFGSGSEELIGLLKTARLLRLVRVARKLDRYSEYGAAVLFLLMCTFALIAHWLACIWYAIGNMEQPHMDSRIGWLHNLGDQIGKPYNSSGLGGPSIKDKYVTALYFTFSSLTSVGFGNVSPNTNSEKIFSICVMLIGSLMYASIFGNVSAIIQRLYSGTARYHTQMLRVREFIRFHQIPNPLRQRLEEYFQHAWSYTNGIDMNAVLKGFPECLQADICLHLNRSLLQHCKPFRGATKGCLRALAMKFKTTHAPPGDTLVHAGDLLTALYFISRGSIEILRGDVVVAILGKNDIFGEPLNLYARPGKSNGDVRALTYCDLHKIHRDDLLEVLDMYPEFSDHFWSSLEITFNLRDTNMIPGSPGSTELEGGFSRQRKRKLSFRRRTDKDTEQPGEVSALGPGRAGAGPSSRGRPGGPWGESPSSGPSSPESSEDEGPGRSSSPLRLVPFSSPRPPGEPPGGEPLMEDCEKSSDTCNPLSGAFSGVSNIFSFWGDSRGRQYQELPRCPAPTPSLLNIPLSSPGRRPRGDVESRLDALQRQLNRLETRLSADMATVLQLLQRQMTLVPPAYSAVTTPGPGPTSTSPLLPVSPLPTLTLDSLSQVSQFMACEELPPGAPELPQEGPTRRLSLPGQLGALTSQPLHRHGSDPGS
ASSAY_METRIC: AC50

// query AC50 value for entry O=C1c2c(O)cccc2Cc2cccc(O)c21 [ANTHRALIN]
> 1 µM

// query AC50 value for entry CC[N+]1(C)CCCC(OC(=O)C(O)(c2ccccc2)c2ccccc2)C1 (centres undefined) [PIPENZOLATE]
0.97 µM

// query AC50 value for entry CC[C@H]1OC(=O)[C@H](C)[C@@H](O[C@H]2C[C@@](C)(OC)[C@@H](O)[C@H](C)O2)[C@H](C)[C@@H](O[C@@H]2O[C@H](C)C[C@H](N(C)C)[C@H]2O)[C@](C)(O)C[C@@H](C)/C(=N\OCOCCOC)[C@H](C)[C@@H](O)[C@]1(C)O [ROXITHROMYCIN]
> 30 µM

// query AC50 value for entry C1CNCCN1 [PIPERAZINE]
> 30 µM

// query AC50 value for entry O=C(O)COc1nn(Cc2ccccc2)c2ccccc12 [BENDAZAC]
> 30 µM

// query AC50 value for entry COc1nccnc1NS(=O)(=O)c1ccc(N)cc1
> 30 µM

###

molecular target: UniProtKB P11229; format: functional
Sequence (P11229 whole entry): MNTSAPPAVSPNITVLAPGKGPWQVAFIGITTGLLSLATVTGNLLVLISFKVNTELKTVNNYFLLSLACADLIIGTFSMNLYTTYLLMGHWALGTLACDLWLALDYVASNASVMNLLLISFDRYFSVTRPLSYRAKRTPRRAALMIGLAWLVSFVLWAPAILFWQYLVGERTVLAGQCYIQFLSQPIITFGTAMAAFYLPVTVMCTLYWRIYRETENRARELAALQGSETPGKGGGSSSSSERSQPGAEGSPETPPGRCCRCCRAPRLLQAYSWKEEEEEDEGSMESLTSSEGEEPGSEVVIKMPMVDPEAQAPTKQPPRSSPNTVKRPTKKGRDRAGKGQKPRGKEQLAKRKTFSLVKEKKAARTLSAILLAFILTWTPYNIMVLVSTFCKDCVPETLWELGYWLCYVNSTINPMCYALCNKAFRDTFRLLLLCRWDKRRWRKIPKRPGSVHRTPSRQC
Reported AC50 values are given for each entry in this list.
Kindly provide the numeric value in µM only, without the unit symbol.

CC(=O)c1ccc2c(c1)N(CCCN1CCC(CCO)CC1)c1ccccc1S2 [PIPERACETAZINE]    7.9

Continue with the compound presented below.
Provide value of AC50 for this record tested with UniProtKB P11229: CCOC(=O)Nc1ccc2c(c1)N(C(=O)CCN1CCOCC1)c1ccccc1S2 [MORICIZINE]
22

###

molecular target: 5-hydroxytryptamine receptor 2B (Homo sapiens); format: functional, cell-based; further: assay procedure not described here
Sequence (P41595 whole entry): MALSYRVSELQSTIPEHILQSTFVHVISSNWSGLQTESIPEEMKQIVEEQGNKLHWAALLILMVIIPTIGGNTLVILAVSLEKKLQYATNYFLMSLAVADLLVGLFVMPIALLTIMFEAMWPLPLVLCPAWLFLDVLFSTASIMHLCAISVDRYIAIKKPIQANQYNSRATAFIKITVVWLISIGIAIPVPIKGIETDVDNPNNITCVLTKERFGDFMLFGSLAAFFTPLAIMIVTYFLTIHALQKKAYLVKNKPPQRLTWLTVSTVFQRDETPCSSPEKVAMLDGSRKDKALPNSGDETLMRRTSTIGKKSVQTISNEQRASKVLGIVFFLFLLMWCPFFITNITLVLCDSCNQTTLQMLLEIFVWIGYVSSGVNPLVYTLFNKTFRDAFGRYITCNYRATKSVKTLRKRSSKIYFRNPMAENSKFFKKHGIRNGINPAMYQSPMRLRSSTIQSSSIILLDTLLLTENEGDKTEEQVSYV
ASSAY_METRIC: AC50

Nc1nc2c(c(=O)[nH]1)N(C=O)C(CNc1ccc(C(=O)N[C@@H](CCC(=O)O)C(=O)O)cc1)CN2 (some centres undefined)    > 30 µM
CCC(=O)O[C@@H](O[P@](=O)(CCCCc1ccccc1)CC(=O)N1C[C@H](C2CCCCC2)C[C@H]1C(=O)O)C(C)C    > 30 µM
CCN(CC)C(=O)C1CN2CCc3cc(OC)c(OC)cc3C2CC1OC(C)=O (centres undefined) [BENZQUINAMIDE]    > 30 µM

Continue with the compound presented below.
Provide value of AC50 for this record tested with 5-hydroxytryptamine receptor 2B (Homo sapiens): CC(=O)Oc1ccccc1C(=O)Nc1ncc([N+](=O)[O-])s1 [NITAZOXANIDE]
> 30 µM
